Items are presented alongside their recorded pIC50.
Test system: SL-2, murine (thymic)
assay-name: inhibition of thymidine incorporation after two hour exposure, SL-2
Assay type: cell-based
condition: Mus musculus, 2 h; Table 1; SL-2, two hour exposure
pIC50: −log10 of the molar value.
measured-quantity: pIC50

INSERT INTO assay_data (compound, target_of_assay, measured_quantity, quantitative_result) VALUES
  ('CC1=C2C(=C[C@@](C)(CO)C2O)C(=O)[C@](C)(O)C12CC2 (some centres unmarked)', 'SL-2, murine (thymic)', 'pIC50', 6.85),
  ('CC1=C2C(=O)C(C)(C)C=C2C(=O)[C@](C)(O)C12CC2 [Dehydroilludin M]', 'SL-2, murine (thymic)', 'pIC50', 5.28);

----------
Test system: L1210 CPA (cyclophos) cells
assay-name: sensitivity of mdr lines, L1210 CPA
Format: cell-based
condition: Mus musculus
measured-quantity: IC50

INSERT INTO measurements (compound, measured_quantity, result) VALUES
  ('CC1=C2C(=O)C(C)(C)C=C2C(=O)[C@](C)(O)C12CC2 [Dehydroilludin M]', 'IC50', '38 nM'),
  ('CC1=C2C(=C[C@@](C)(CO)C2O)C(=O)[C@](C)(O)C12CC2 (some centres unmarked) [Illudin S]', 'IC50', '0.46 nM');

----------
assay-name: tolerability in mice
condition: mouse, in vivo, ip
measured-quantity: MTD at 672 h (mg/kg)

INSERT INTO assay_data (compound, quantity_unit, quantitative_result) VALUES
  ('CC1=C2C(=O)C(C)(C)C=C2C(=O)[C@](C)(O)C12CC2 [Dehydroilludin M]', 'mg/kg', 60);

----------
Tested on: L1210 PAM (melphalan) cells
assay-name: sensitivity of mdr lines, L1210 PAM
Assay type: cell-based
condition: Mus musculus
Items are presented alongside their recorded IC50.
measured-quantity: IC50 (nM)

INSERT INTO assay_data (compound, measured_quantity, quantitative_result) VALUES
  ('CC1=C2C(=C[C@@](C)(CO)C2O)C(=O)[C@](C)(O)C12CC2 (some centres unmarked) [Illudin S]', 'IC50', 0.62),
  ('CC1=C2C(=O)C(C)(C)C=C2C(=O)[C@](C)(O)C12CC2 [Dehydroilludin M]', 'IC50', 73);

----------
Items are presented alongside their recorded pIC50.
Test system: HL60 cells (myeloid)
assay-name: cells
Assay type: cell-based, human
condition: Homo sapiens, HL-60, 2 h
pIC50: −log10 of the molar value.
measured-quantity: pIC50

INSERT INTO assay_data (compound, measured_quantity, quantitative_result) VALUES
  ('CC1=C2C(=C[C@@](C)(CO)C2O)C(=O)[C@](C)(O)C12CC2 (some centres unmarked)', 'pIC50', 8.15),
  ('CC1=C2C(=O)C(C)(C)C=C2C(=O)[C@](C)(O)C12CC2 [Dehydroilludin M]', 'pIC50', 6.61);

----------
Test system: MV522 cells
assay-name: cells
Type: cell-based, human
condition: Homo sapiens, MV522, 2 h, read-out: Two hour IC50
pIC50: −log10 of the molar value.
Items are presented alongside their recorded pIC50.
measured-quantity: pIC50

INSERT INTO assay_data (compound, quantitative_result) VALUES
  ('CC1=C(CO)C2=C(C)C3(CC3)[C@@](C)(O)C(=O)C2=C1 [6-hydroxymethylacylfulvene]', 6.94),
  ('CC1=C(Cc2ccc(O)cc2)C2=C(C)C3(CC3)[C@@](C)(O)C(=O)C2=C1 [6-(p-hydroxybenzyl)acylfulvene, 6-(p-Hydroxybenzyl)acylfulvene]', 5.93),
  ('CC1=CC2=C(C)C3(CC3)[C@@](C)(O)C(=O)C2=C1', 6.14),
  ('COc1ccc(CC2=C(C)C=C3C(=O)[C@](C)(O)C4(CC4)C(C)=C32)cc1', 5.69),
  ('CC(=O)OCC1=C(C)C=C2C(=O)[C@](C)(O)C3(CC3)C(C)=C21', 5.97),
  ('CC1=C2C(=C[C@@](C)(CO)C2O)C(=O)[C@](C)(O)C12CC2 (stereo partly drawn)', 7.72),
  ('CC1=C2C(=O)C(C)(C)C=C2C(=O)[C@](C)(O)C12CC2 [Dehydroilludin M]', 5.74),
  ('CC1=C(I)C2=C(C)C3(CC3)[C@@](C)(O)C(=O)C2=C1', 6.02),
  ('CC1=C(Br)C2=C(C)C3(CC3)[C@@](C)(O)C(=O)C2=C1', 5.38);
